This section presents molecules with their documented inhibition values.
Target: BDNF/NT-3 growth factors receptor (Homo sapiens)
Test: Competitive binding affinity to TRKB (unknown origin) at 10 uM in presence of ATP relative to control

Inquiry: // inhibition lookup, key: O[C@H]1CC[C@H](Nc2nccc(-c3n[nH]c4ccccc34)n2)CC1
Reply text: 100%

Inquiry: What do we get for O[C@H]1CC[C@H](Nc2nccc(-n3ncc4ccccc43)n2)CC1 ?
Reply text: < 50%

Inquiry: Same read-out for O[C@H]1CC[C@H](Nc2nccc(-n3nnc4ccccc43)n2)CC1 ?
Reply text: < 50%

Kindly review the next molecule as well.
Inquiry: What inhibition value was documented for this molecule, O[C@H]1CC[C@H](Nc2nccc(-n3ccc4ccccc43)n2)CC1 ?
Reply text: < 50%

* * *

Molecular target: Fibroblast growth factor receptor 3 (Homo sapiens)
Assay: Competitive binding affinity to FGFR3 (unknown origin) at 10 uM in presence of ATP relative to control
observation_type: inhibition

Inquiry: Please report the recorded inhibition for O[C@H]1CC[C@H](Nc2nccc(-n3ncc4ccccc43)n2)CC1 .
Reply text: < 50%

Others:
Inquiry: Name the reported inhibition value associated with the compound N[C@H]1CC[C@H](Nc2nccc(-n3nnc4ccccc43)n2)CC1
Reply text: < 50%

Inquiry: Next compound up: O[C@H]1CC[C@H](Nc2nccc(-c3n[nH]c4ccccc34)n2)CC1
Reply text: 74%

Inquiry: Note, next up: O=C([C@H]1CC[C@H](Nc2nccc(-n3nnc4ccccc43)n2)CC1)N1CCOCC1
Reply text: < 50%

Inquiry: Next record, please: O[C@H]1CC[C@H](Nc2nccc(-n3nnc4ccccc43)n2)CC1
Reply text: < 50%

Inquiry: Same again, this time with O[C@H]1CC[C@H](Nc2nccc(-n3ccc4ccccc43)n2)CC1
Reply text: < 50%

* * *

Target: Serine/threonine-protein kinase 17A (Homo sapiens)
Sequence (Q9UEE5 whole entry): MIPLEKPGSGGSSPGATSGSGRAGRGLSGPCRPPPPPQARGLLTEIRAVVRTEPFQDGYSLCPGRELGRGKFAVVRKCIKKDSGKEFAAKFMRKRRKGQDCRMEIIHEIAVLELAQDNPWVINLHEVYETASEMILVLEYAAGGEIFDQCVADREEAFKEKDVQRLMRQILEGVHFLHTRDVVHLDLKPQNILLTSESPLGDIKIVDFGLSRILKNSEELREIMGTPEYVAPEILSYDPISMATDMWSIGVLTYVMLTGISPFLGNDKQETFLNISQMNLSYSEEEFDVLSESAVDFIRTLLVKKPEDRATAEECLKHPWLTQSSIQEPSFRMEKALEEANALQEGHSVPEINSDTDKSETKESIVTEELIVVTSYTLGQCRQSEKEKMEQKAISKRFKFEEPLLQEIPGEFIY
observation_type: Kd (nM)
Give just the number in nM; leave the unit off.

Inquiry: Field request: Kd | item: CS(=O)(=O)CCCOc1cccc2c1ccn2-c1ccnc(N[C@H]2CC[C@H](C(=O)N3CCC(O)CC3)CC2)n1
Reply text: 440

* * *

Overview of recorded inhibition for various compounds
Target: Dual specificity protein kinase CLK3 (Homo sapiens)
Experiment: Competitive binding affinity to CLK3 (unknown origin) at 10 uM in presence of ATP relative to control
Give the value, in units of %, as a plain number.

Inquiry: So what's the measured inhibition for this one? O[C@H]1CC[C@H](Nc2nccc(-c3n[nH]c4ccccc34)n2)CC1
Reply text: 94

Inquiry: Same thing, different compound: O[C@H]1CC[C@H](Nc2nccc(-n3nnc4ccccc43)n2)CC1
Reply text: 82

// next item, inhibition requested
Inquiry: Sample N[C@H]1CC[C@H](Nc2nccc(-n3nnc4ccccc43)n2)CC1 — what was its inhibition?
Reply text: 94

* * *

Below, each entry is listed with its recorded inhibition.
Biological target: Tyrosine-protein kinase JAK1 (Homo sapiens) (UniProt P23458)
Sequence (P23458 whole entry, the tested form may be a part): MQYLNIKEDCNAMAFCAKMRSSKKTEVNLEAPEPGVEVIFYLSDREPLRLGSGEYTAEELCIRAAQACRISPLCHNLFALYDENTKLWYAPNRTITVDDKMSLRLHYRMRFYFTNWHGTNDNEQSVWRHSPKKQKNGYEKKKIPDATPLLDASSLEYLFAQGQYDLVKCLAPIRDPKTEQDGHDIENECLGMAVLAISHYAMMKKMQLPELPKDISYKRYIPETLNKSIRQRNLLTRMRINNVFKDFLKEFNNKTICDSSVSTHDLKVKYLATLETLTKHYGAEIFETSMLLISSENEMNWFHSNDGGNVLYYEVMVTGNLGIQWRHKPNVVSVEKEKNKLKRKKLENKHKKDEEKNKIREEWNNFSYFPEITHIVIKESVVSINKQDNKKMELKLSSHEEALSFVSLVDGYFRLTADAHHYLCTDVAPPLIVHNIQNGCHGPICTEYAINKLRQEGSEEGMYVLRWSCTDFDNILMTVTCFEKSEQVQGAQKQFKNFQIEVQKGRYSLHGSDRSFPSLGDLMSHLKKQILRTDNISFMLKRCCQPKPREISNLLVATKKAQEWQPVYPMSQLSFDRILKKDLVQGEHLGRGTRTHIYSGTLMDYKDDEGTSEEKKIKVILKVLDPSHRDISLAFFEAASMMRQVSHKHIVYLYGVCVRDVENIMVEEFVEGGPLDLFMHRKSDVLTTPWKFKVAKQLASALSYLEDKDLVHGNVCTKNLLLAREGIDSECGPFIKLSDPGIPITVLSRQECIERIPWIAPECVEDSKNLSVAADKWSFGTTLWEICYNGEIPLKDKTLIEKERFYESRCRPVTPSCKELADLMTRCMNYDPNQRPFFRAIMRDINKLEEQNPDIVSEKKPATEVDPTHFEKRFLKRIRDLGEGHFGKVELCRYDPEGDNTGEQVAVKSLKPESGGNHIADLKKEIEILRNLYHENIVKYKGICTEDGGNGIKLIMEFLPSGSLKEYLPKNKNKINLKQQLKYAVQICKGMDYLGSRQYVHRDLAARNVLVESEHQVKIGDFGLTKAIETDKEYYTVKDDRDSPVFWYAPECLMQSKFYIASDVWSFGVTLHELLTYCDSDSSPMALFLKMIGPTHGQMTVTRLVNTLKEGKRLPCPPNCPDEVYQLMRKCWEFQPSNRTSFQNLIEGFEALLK
Assay: Competitive binding affinity to JAK1 kinase domain 1 (unknown origin) at 10 uM in presence of ATP relative to control

Inquiry: Recorded inhibition for O=C([C@H]1CC[C@H](Nc2nccc(-n3nnc4ccccc43)n2)CC1)N1CCOCC1 , please?
Reply text: < 50%

Inquiry: Likewise for O[C@H]1CC[C@H](Nc2nccc(-n3nnc4ccccc43)n2)CC1 ?
Reply text: < 50%

Inquiry: How about this compound: O[C@H]1CC[C@H](Nc2nccc(-n3ccc4ccccc43)n2)CC1
Reply text: < 50%

Inquiry: // same read-out, input: N[C@H]1CC[C@H](Nc2nccc(-n3nnc4ccccc43)n2)CC1
Reply text: < 50%

Inquiry: Next compound up: O[C@H]1CC[C@H](Nc2nccc(-c3n[nH]c4ccccc34)n2)CC1
Reply text: 99%

Next:
Inquiry: Find the recorded inhibition belonging to O[C@H]1CC[C@H](Nc2nccc(-n3ncc4ccccc43)n2)CC1 and report it.
Reply text: 88%

* * *

Target: Cyclin-dependent kinase 7 (Homo sapiens)
Sequence (P50613 whole entry): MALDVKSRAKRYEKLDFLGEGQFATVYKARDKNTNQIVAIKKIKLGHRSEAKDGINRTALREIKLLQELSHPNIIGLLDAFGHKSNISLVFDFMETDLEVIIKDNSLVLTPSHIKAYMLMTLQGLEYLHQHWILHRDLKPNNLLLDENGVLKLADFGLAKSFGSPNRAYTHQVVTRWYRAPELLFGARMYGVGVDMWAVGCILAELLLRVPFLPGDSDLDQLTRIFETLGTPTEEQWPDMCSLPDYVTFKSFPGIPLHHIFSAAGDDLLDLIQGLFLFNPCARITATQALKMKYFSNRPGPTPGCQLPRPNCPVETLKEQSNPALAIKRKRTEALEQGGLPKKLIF
Experiment: Competitive binding affinity to CDK7 (unknown origin) at 10 uM in presence of ATP relative to control
Documented inhibition across a set of compounds
The response must be a number in % with no trailing unit.

Inquiry: Could you share what inhibition was measured for O[C@H]1CC[C@H](Nc2nccc(-n3nnc4ccccc43)n2)CC1 , tested on Cyclin-dependent kinase 7 (Homo sapiens)?
Reply text: 92

***
Inquiry: What measured inhibition is associated with O[C@H]1CC[C@H](Nc2nccc(-n3ncc4ccccc43)n2)CC1 on Cyclin-dependent kinase 7 (Homo sapiens)?
Reply text: 81

Inquiry: O[C@H]1CC[C@H](Nc2nccc(-n3ccc4ccccc43)n2)CC1 , same question.
Reply text: 83

* * *

Biological target: Serine/threonine-protein kinase Nek5 (Homo sapiens) (UniProt Q6P3R8)
Sequence (Q6P3R8 whole entry): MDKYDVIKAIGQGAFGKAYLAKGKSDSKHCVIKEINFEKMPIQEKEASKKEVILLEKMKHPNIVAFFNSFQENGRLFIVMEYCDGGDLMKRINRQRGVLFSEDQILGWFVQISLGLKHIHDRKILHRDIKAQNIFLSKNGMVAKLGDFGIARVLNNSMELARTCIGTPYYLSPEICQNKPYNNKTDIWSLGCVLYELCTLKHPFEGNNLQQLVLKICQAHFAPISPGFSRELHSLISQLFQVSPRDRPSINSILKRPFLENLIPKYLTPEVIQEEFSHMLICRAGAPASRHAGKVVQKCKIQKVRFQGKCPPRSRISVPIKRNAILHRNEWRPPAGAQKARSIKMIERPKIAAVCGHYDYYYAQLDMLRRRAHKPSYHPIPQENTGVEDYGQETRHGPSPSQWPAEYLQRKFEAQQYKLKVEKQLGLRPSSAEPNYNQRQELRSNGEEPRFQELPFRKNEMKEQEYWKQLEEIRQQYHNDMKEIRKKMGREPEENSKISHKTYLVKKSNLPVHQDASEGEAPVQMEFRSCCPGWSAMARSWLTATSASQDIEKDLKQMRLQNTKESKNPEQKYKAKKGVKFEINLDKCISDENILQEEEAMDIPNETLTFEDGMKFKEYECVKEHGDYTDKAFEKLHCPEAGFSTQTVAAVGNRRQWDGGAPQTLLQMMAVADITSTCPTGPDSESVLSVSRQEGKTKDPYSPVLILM
Experiment: Competitive binding affinity to NEK5 (unknown origin) at 10 uM in presence of ATP relative to control
observation_type: inhibition (%)
Kindly provide the numeric value in % only, without the unit symbol.

Inquiry: Reported inhibition, molecule O[C@H]1CC[C@H](Nc2nccc(-n3ncc4ccccc43)n2)CC1 : ____
Reply text: 71

Continuing:
Inquiry: Sample O[C@H]1CC[C@H](Nc2nccc(-n3nnc4ccccc43)n2)CC1 — what was its inhibition?
Reply text: 95

* * *

Molecular target: Serine/threonine-protein kinase 32C (Homo sapiens) (UniProt Q86UX6)
Sequence (Q86UX6 whole entry): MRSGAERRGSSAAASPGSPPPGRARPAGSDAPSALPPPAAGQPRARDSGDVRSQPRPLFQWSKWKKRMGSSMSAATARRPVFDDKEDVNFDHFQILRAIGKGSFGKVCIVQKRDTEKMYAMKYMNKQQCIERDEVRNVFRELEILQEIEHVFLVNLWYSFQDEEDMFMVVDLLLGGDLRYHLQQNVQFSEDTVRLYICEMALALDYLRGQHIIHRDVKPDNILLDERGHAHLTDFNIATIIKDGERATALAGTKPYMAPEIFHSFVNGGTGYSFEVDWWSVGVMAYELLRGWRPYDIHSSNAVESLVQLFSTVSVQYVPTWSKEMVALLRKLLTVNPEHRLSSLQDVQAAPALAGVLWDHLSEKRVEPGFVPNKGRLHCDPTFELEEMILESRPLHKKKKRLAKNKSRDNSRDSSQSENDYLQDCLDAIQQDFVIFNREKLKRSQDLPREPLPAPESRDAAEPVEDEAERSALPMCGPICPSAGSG
Test: Competitive binding affinity to YANK3 (unknown origin) at 10 uM in presence of ATP relative to control
observation_type: inhibition

Inquiry: For the record O[C@H]1CC[C@H](Nc2nccc(-n3nnc4ccccc43)n2)CC1 , what value of inhibition is listed for Serine/threonine-protein kinase 32C (Homo sapiens) (UniProt Q86UX6)?
Reply text: < 50%

Inquiry: What would you report for O[C@H]1CC[C@H](Nc2nccc(-n3ncc4ccccc43)n2)CC1 ?
Reply text: < 50%

Inquiry: Here is the next compound: O[C@H]1CC[C@H](Nc2nccc(-n3ccc4ccccc43)n2)CC1
Reply text: < 50%

Further cases:
Inquiry: Query the reported inhibition for Serine/threonine-protein kinase 32C (Homo sapiens) (UniProt Q86UX6); item: O[C@H]1CC[C@H](Nc2nccc(-c3n[nH]c4ccccc34)n2)CC1
Reply text: < 50%

* * *

Target: Mitogen-activated protein kinase kinase kinase kinase 3 (Homo sapiens)
Experiment: Competitive binding affinity to MAP4K3 (unknown origin) at 10 uM in presence of ATP relative to control
Quick reference for inhibition among some compounds

For orientation, consider the following solved cases.
Inquiry: Report inhibition for O[C@H]1CC[C@H](Nc2nccc(-n3ccc4ccccc43)n2)CC1 tested on Mitogen-activated protein kinase kinase kinase kinase 3 (Homo sapiens).
Reply text: < 50%

Inquiry: Next record, please: O[C@H]1CC[C@H](Nc2nccc(-c3n[nH]c4ccccc34)n2)CC1
Reply text: 97%

Inquiry: # repeat for O[C@H]1CC[C@H](Nc2nccc(-n3ncc4ccccc43)n2)CC1
Reply text: < 50%

Could you now consider this next compound?
Inquiry: Give Mitogen-activated protein kinase kinase kinase kinase 3 (Homo sapiens) inhibition for O[C@H]1CC[C@H](Nc2nccc(-n3nnc4ccccc43)n2)CC1
Reply text: < 50%

* * *

Biological target: Mitogen-activated protein kinase 9 (Homo sapiens, UniProt P45984)
Sequence (P45984 whole entry, looked up): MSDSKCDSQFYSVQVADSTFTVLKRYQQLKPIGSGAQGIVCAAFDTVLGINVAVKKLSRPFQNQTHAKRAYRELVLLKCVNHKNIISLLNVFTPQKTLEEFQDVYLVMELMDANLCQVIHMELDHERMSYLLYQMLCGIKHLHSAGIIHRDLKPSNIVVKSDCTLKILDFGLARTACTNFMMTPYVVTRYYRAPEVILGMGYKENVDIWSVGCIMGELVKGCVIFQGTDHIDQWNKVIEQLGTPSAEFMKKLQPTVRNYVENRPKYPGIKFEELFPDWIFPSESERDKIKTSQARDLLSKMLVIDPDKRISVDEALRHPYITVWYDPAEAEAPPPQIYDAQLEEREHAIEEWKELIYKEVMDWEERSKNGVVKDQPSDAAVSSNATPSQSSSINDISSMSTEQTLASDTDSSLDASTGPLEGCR
Experiment: Competitive binding affinity to JNK2 (unknown origin) at 10 uM in presence of ATP relative to control
observation_type: inhibition (%)
Could you give me the number in %? Just the number is fine.

Would you please look over these solved cases?
Inquiry: Notebook: pull reported inhibition for Mitogen-activated protein kinase 9 (Homo sapiens, UniProt P45984), entry O=C([C@H]1CC[C@H](Nc2nccc(-n3nnc4ccccc43)n2)CC1)N1CCOCC1
Reply text: 98

Inquiry: // query: O[C@H]1CC[C@H](Nc2nccc(-n3ccc4ccccc43)n2)CC1
Reply text: 99

Inquiry: Param item: O[C@H]1CC[C@H](Nc2nccc(-n3ncc4ccccc43)n2)CC1
Reply text: 99

***
Inquiry: What reported inhibition corresponds to O[C@H]1CC[C@H](Nc2nccc(-n3nnc4ccccc43)n2)CC1 on Mitogen-activated protein kinase 9 (Homo sapiens, UniProt P45984)?
Reply text: 99

Inquiry: Entry O[C@H]1CC[C@H](Nc2nccc(-c3n[nH]c4ccccc34)n2)CC1 please
Reply text: 93

Inquiry: What do you have for N[C@H]1CC[C@H](Nc2nccc(-n3nnc4ccccc43)n2)CC1 ?
Reply text: 100

Attribution: ChEMBL document CHEMBL2424622
